Molecular target: truncated form of human NaV 1.8 with full channel activity (Homo sapiens)
Assay: E-VIPR Assay Method A for detecting and measuring Nav inhibition (HEK cells, membrane potential FRET dyes, electrical stimulation)
Format: cell-based
Conditions: HEK cells expressing human NaV 1.8, HS (human serum) in compound loading buffer, 11 point dose response, top dose 3 μM, Table 20A, read-out: Nav 1.8 MedChem Optical Assay EVIPR Assay Method A HS IC50
QUANTITY NAME: IC50 (nM)
The reply should contain only the number, in nM.

Could you share which IC50 value was measured for COc1cc(OC(F)(F)F)ccc1Oc1cc(C(F)(F)F)cnc1C(=O)Nc1ccc(F)c(C(N)=O)c1 ?
55

Repeat for the following molecule: COc1cc(OC(F)(F)F)ccc1Oc1cc(C(F)(F)F)ncc1C(=O)Nc1ccc(OC)c(C(N)=O)c1
2700

Try this molecule next: NC(=O)c1cc(NC(=O)c2c(Oc3ccc(OC(F)(F)F)c(F)c3)ccc(C(F)(F)F)c2F)ccn1
17

Further, for COc1cc(OC(F)(F)F)ccc1Oc1ccc(C(F)(F)F)c(F)c1C(=O)Nc1cccc(C(=O)N(C)C)c1 ?
54

----------
Can you tell me IC50 for the items I'm about to list?
Target: truncated form of human NaV 1.8 with full channel activity (Homo sapiens, UniProt Q9Y5Y9)
Sequence (Q9Y5Y9 126-1722 limits assumed): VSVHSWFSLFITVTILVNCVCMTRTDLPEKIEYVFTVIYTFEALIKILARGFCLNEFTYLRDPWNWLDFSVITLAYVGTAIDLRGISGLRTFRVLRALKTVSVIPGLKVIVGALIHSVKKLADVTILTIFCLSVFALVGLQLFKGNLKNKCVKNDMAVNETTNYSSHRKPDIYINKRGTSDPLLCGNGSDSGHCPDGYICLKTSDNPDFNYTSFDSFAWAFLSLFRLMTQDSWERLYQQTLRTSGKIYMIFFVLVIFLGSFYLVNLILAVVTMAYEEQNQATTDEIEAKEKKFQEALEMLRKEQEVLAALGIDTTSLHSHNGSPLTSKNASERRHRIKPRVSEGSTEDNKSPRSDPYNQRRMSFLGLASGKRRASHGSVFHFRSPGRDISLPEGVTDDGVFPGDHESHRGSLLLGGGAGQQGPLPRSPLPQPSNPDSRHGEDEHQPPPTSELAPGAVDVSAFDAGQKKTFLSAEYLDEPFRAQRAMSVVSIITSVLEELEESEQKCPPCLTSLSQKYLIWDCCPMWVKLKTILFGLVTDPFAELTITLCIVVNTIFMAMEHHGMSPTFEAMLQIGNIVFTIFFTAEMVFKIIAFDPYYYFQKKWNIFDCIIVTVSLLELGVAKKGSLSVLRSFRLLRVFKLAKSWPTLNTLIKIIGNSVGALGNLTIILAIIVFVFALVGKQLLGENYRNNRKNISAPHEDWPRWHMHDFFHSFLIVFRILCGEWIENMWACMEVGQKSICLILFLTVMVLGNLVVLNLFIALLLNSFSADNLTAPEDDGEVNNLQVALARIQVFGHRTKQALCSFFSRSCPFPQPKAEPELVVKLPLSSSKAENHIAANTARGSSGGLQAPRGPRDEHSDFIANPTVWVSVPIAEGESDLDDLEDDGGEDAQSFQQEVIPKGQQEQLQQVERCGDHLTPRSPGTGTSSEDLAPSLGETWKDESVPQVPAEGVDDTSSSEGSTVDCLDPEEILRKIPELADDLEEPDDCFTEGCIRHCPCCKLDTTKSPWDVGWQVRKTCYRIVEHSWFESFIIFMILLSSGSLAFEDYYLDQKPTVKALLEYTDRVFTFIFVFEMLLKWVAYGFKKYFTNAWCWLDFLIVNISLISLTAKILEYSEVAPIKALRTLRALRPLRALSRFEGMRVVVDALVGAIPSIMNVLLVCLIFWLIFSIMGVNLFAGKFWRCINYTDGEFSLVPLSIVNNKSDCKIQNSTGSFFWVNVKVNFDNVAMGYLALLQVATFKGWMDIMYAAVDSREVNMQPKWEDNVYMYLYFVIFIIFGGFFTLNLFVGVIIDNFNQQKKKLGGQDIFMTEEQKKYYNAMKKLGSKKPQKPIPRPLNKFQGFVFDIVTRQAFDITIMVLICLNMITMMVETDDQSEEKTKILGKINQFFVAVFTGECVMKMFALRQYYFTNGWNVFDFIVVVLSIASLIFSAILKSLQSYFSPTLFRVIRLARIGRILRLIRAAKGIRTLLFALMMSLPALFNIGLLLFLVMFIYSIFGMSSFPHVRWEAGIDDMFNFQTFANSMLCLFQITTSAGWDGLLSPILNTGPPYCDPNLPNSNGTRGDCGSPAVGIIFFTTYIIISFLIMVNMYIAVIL
Experiment: E-VIPR Assay Method B for detecting and measuring Nav inhibition (HEK cells, membrane potential FRET dyes, electrical stimulation)
Type: cell-based
Details: HEK cells expressing human NaV 1.8, Table 20B, read-out: Nav 1.8 MedChem Optical Assay EVIPR Assay Method B HS IC50
Give the value, in units of nM, as a plain number.

Look up IC50 for this molecule: COc1cc(Cl)ccc1Oc1cc(C(F)(F)F)ccc1C(=O)Nc1cccc(C(N)=O)c1
26

Another: Cc1cc(F)ccc1Oc1ccc(C(F)(F)F)cc1C(=O)Nc1cccc(C(N)=O)c1C
1400

Follow-up item: Cc1cc(F)ccc1Oc1cccc(C(F)(F)F)c1C(=O)Nc1cccc(C(N)=O)c1
85

Same question, COc1cc(F)ccc1Oc1cc(C(F)(F)C(F)(F)F)ccc1C(=O)Nc1cccc(C(N)=O)c1 this time
11

What do we get for COc1ccc(Oc2cc(C(F)(F)C(F)(F)F)ccc2C(=O)Nc2cccc(C(N)=O)c2)c(Cl)c1 ?
91

Now consider COc1ccc(Oc2cc(Cl)c(Cl)cc2C(=O)Nc2cccc(C(N)=O)c2)c(F)c1 and answer again.
30

Note, next up: COc1cc(Cl)ccc1Oc1ccc(C(F)(F)F)cc1C(=O)Nc1cccc(C(N)=O)c1
20

Another molecule to check: NC(=O)c1cccc(NC(=O)c2c(Oc3ccc(F)cc3)cccc2C(F)(F)F)c1
415

----------
Biological target: truncated form of human NaV 1.8 with full channel activity (Homo sapiens, UniProt Q9Y5Y9)
Experiment: E-VIPR Assay Method A for detecting and measuring Nav inhibition (HEK cells, membrane potential FRET dyes, electrical stimulation)
Format: cell-based
Conditions: HEK cells expressing human NaV 1.8, HS (human serum) in compound loading buffer, 11 point dose response, top dose 3 μM, Table 20, read-out: Nav 1.8 MedChem Optical Assay EVIPR Assay Method A HS IC50
Please use YES for IC50 under 9 nM and NO for everything else, ties included.

Please state whether IC50 is below 9 nM for [2H]C([2H])([2H])Oc1cc(OC(F)(F)F)ccc1Oc1ccc(C(F)(F)F)c(F)c1C(=O)Nc1ccnc(C(N)=O)c1
YES

[2H]C([2H])([2H])Oc1cc(OC(F)(F)F)ccc1Oc1ccc(OC(F)(F)F)c(F)c1C(=O)Nc1ccnc(C(N)=O)c1 ?
YES

Param item: COc1cc(OC(F)(F)F)ccc1Oc1ccc(C(F)(F)F)c(F)c1C(=O)Nc1ccc(C(N)=O)c(F)c1
YES

Also [2H]C([2H])([2H])Oc1cc(OC(F)(F)F)ccc1Oc1ccc(C(F)(F)F)c(F)c1C(=O)Nc1ccc(F)c(C(N)=O)c1 , if possible.
YES

Also need [2H]C([2H])([2H])Oc1cc(OC(F)(F)F)ccc1Oc1cc(C(F)(F)F)cc(F)c1C(=O)Nc1ccnc(C(N)=O)c1 , thanks.
YES

What about this molecule? NC(=O)c1cc(NC(=O)c2c(Oc3ccc(OC(F)(F)F)cc3F)ccc(C(F)(F)F)c2F)ccc1F
NO

Entry to check: COc1cc(OC(F)(F)F)ccc1Oc1cc(OC(F)F)cc(F)c1C(=O)Nc1ccnc(C(N)=O)c1
NO

Item: COc1cc(OC(F)(F)F)ccc1Oc1ccc(Cl)c(F)c1C(=O)Nc1ccnc(C(N)=O)c1
YES

# repeat for COc1cc(OC(F)(F)F)ccc1Oc1ccc(C(F)F)c(F)c1C(=O)Nc1ccc(F)c(C(N)=O)c1
YES

Can you check COc1cc(OC(F)(F)F)ccc1Oc1cc(C(F)(F)F)c(F)cc1C(=O)Nc1ccc(F)c(C(N)=O)c1 next?
NO

----------
Target: truncated form of human NaV 1.8 with full channel activity (Homo sapiens)
Experiment: E-VIPR Assay Method A for detecting and measuring Nav inhibition (HEK cells, membrane potential FRET dyes, electrical stimulation)
Format: cell-based
Conditions: HEK cells expressing human NaV 1.8, HS (human serum) in compound loading buffer, 11 point dose response, top dose 3 μM, Table 20, read-out: Nav 1.8 MedChem Optical Assay EVIPR Assay Method A HS IC50
QUANTITY NAME: IC50
In your response, put the unit directly after the numeric value.

Please report the recorded IC50 for COc1c(Oc2ccc(C(F)(F)F)c(F)c2C(=O)Nc2ccnc(C(N)=O)c2)ccc(OC(F)(F)F)c1F [Compound 26] .
2 nM

Same question for COc1cc(OC(F)(F)F)ccc1Oc1cc(F)c(F)c(F)c1C(=O)Nc1ccc(F)c(C(N)=O)c1 [Compound 11] please.
4 nM

Also NC(=O)c1cc(NC(=O)c2c(Oc3ccc(OC(F)(F)F)cc3OC(F)F)ccc(C(F)(F)F)c2F)ccn1 [Compound 13] , if possible.
4 nM

What would you report for Cc1cc(OC(F)(F)F)ccc1Oc1ccc(C(F)(F)F)c(F)c1C(=O)Nc1ccc(F)c(C(N)=O)c1 [Compound 10] ?
3 nM

Queued: [2H]C([2H])([2H])Oc1cc(OC(F)(F)F)ccc1Oc1ccc(C(F)(F)F)c(F)c1C(=O)Nc1ccc(C(N)=O)nc1 [Compound 24]
18 nM

Entry to check: NC(=O)c1cc(NC(=O)c2c(Oc3ccc(OC(F)(F)F)c(Cl)c3)ccc(C(F)(F)F)c2F)ccc1F [Compound 14]
6 nM

Next up: NC(=O)c1cc(NC(=O)c2c(Oc3ccc(OC(F)(F)F)cc3Cl)ccc(C(F)(F)F)c2F)ccc1F [Compound 9]
3 nM

Same read-out for [2H]C([2H])([2H])Oc1cc(OC(F)(F)F)ccc1Oc1ccc(OC(F)(F)F)c(F)c1C(=O)Nc1ccc(F)c(C(N)=O)c1 [Compound 3] ?
1 nM

Cool, now COc1cc(OC(F)(F)F)ccc1Oc1cnc(C(F)(F)F)c(F)c1C(=O)Nc1ccnc(C(N)=O)c1 [Compound 12]
4 nM

Follow-up item: COc1cc(OC(F)(F)F)ccc1Oc1ccc(C(F)(F)F)c(F)c1C(=O)Nc1ccc(F)c(C(N)=O)c1 [Compound 2]
1 nM

# repeat for COc1cc(OC(F)(F)F)ccc1Oc1ccc(C(F)(F)F)c(F)c1C(=O)Nc1ccnc(C(N)=O)c1 [Compound 4]
2 nM

Param item: NC(=O)c1cc(NC(=O)c2c(Oc3ccc(F)cc3)ccc(C(F)(F)F)c2F)ccc1F [Compound 25]
18 nM

Can you handle COc1cc(OC(F)(F)F)ccc1Oc1cc(C2CC2)cc(F)c1C(=O)Nc1ccnc(C(N)=O)c1 [Compound 22] next?
11 nM

----------
Exercise: for every item that follows, state its recorded pIC50.
Biological target: truncated form of human NaV 1.8 with full channel activity (Homo sapiens)
Experiment: E-VIPR Assay Method A for detecting and measuring Nav inhibition (HEK cells, membrane potential FRET dyes, electrical stimulation)
Format: cell-based
Conditions: HEK cells expressing human NaV 1.8, HS (human serum) in compound loading buffer, 11 point dose response, top dose 3 μM, Table 20A, read-out: Nav 1.8 MedChem Optical Assay EVIPR Assay Method A HS IC50
Just so you know, pIC50 here is -log10 of the concentration in molar units; reply with that number alone.

GET /values?readout=pIC50&item= NC(=O)c1cc(NC(=O)c2cc(F)c(C(F)(F)F)cc2Oc2ccc(OC(F)(F)F)cc2)ccn1
6.46

And the next one, COc1cc(OC(F)(F)F)ccc1Oc1cc(Cl)c(C)c(F)c1C(=O)Nc1ccnc(C(N)=O)c1 ?
9.00

Next up: [2H]C([2H])([2H])Oc1cc(OC(F)(F)F)ccc1Oc1ccc(C(F)(F)F)c(F)c1C(=O)Nc1ccc(C(N)=O)cn1
7.27

Also check NC(=O)c1cc(NC(=O)c2c(Oc3ccc(F)cc3OC(F)F)ccc(C(F)(F)F)c2F)ccn1
7.89

Continue with COc1cc(OC(F)(F)F)ccc1Oc1cc(C2CC2)ncc1C(=O)Nc1ccc(F)c(C(N)=O)c1
7.40

Consider next the molecule NC(=O)c1cc(NC(=O)c2c(Cl)cc(Cl)cc2Oc2ccc(OC(F)(F)F)cc2)ccn1 in the same way.
7.12

Can you handle COc1cc(OC(F)(F)F)ccc1Oc1cc2c(cc1C(=O)Nc1ccc(C(N)=O)nc1)OC(F)(F)O2 next?
6.34

Ok, now [2H]C([2H])([2H])Oc1cc(OC(F)(F)F)ccc1Oc1cc(OC(F)(F)F)cc(F)c1C(=O)Nc1ccc(C(N)=O)nc1
7.28

What do you get for NC(=O)c1cccc(NC(=O)c2c(Oc3ccc(F)cc3)ccc(C(F)(F)F)c2F)c1 ?
6.89

Value source: patent US12281057B2
